experimental system: his-labeled human IL-13 (immunogen A) (human) (UniProt P35225)
method: FACS blocking, biotin-IL-13 on IL-13Ra1/IL-4Ra HEK293 cells; antibody at 1.33 nM
quantity: mean fluorescence intensity

INSERT INTO assay_data (binder, quantity, result) VALUES
  ('c70F10A10 (mouse-human chimeric IL-13 antibody) (antibody, V domains shown) VH: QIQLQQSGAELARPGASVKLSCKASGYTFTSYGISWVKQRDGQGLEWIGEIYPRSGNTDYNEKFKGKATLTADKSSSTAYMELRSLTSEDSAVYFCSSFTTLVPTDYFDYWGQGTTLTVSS VL: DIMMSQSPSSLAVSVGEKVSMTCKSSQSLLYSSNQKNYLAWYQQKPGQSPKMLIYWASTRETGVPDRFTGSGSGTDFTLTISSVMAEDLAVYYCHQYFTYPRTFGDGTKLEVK', 'mean fluorescence intensity', 53.3),
  ('c35E2C3 (mouse-human chimeric IL-13 antibody) (antibody, V domains shown) VH: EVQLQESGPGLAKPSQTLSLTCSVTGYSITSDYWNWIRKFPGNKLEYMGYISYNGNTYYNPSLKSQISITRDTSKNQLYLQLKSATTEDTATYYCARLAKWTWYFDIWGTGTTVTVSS VL: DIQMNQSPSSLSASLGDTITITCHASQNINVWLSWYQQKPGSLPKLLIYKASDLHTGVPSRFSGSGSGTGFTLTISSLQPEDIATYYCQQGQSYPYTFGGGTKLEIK', 'mean fluorescence intensity', 33.1);

Shifting focus to the binder that follows.
Look up mean fluorescence intensity for this binder: 29D9H8 (lead antibody, mouse hybridoma) (antibody, V domains shown, Mouse monoclonal antibody purified from hybridoma supernatant on Protein G) VH: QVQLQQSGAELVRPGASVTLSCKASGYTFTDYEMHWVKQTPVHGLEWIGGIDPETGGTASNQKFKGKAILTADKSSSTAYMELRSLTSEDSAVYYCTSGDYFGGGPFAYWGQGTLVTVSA VL: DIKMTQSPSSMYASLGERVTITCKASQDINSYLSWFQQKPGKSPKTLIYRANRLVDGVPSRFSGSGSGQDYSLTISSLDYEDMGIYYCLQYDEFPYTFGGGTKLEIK
24
